The measured values listed here are drawn from paper PMC6925341.

Tested on: HPV16-PsV
Assay: organism not typed
Type: cell-based, HPV-16
Details: 72 h, read-out: HPV Infection IC50
pIC50: −log10 of the molar value.
Label false (0) if pIC50 falls below 6; label true (1) in every other case.

INSERT INTO assay_data (compound, classification) VALUES
  ('O=[N+]([O-])C(Br)(CO)CO [Bronopol]', 'false (0)'),
  ('COc1cc([C@@H]2c3cc4c(cc3[C@@H](O[C@@H]3O[C@@H]5CO[C@@H](C)O[C@H]5[C@H](O)[C@H]3O)[C@H]3COC(=O)[C@H]23)OCO4)cc(OC)c1O [Etoposide]', 'true (1)'),
  ('Cc1cc2nc3ccc(N(C)C)cc3[s+]c2cc1N [Tolonium chloride]', 'false (0)'),
  ('N=c1ccn2c(n1)O[C@H]1[C@H](O)[C@@H](CO)O[C@H]12 [Ancitabine]', 'true (1)'),
  ('CNCCC=C1c2ccccc2CCc2ccccc21 [Nortriptyline]', 'false (0)'),
  ('N=C(N)c1ccc(OCCCCCOc2ccc(C(=N)N)cc2)cc1 [Pentamidine]', 'false (0)'),
  ('Cc1cc(C2CCCCC2)n(O)c(=O)c1 [Ciclopirox]', 'false (0)'),
  ('Cc1nccn1CC1CCc2c(c3ccccc3n2C)C1=O (centres unmarked) [Ondansetron]', 'false (0)'),
  ('COc1cc(NS(C)(=O)=O)ccc1Nc1c2ccccc2nc2ccccc12 [Amsacrine]', 'true (1)'),
  ('O=c1[nH]c(=O)n([C@H]2C[C@H](O)[C@@H](CO)O2)cc1F [Floxuridine]', 'true (1)'),
  ('O=C1C=C2C=C[C@@H]3C[C@@]2(O1)[C@H]1CCCCN31 [Securinine]', 'false (0)'),
  ('C[C@H]1O[C@@H](n2cc(F)c(=O)[nH]c2=O)[C@H](O)[C@@H]1O [Doxifluridine]', 'false (0)');
